Target: THR beta (Homo sapiens, UniProt P10828)
Construct: expressed in transfected cells; host or cells: HEK293T (ATCC CRL-3216)
Test: HEK293T THR beta/RXR luciferase reporter assay (Assay 2)
Type: cell-based
Conditions: HEK-293T; Table 5; Assay 2; THRβ; read-out: Activity category Assay 2 THRβ (Emax)
Parameter: Emax

Smiles Structure	Measurement
Nc1nn(-c2cc(Cl)c(Oc3cc(C4CC(F)(F)C4)c(=O)[nH]n3)c(Cl)c2)c(=O)[nH]c1=O	50 to 75%
N#Cc1nn(-c2cc(Cl)c(Oc3ccc4[nH]cc(C#N)c4c3)c(Cl)c2)c(=O)[nH]c1=O	> 75%
Nc1nn(-c2cc(Cl)c(Oc3cc(Cc4ccc(O)cn4)c(=O)[nH]n3)c(Cl)c2)c(=O)[nH]c1=O	< 50%
Cc1ccc(-c2cc(=O)[nH]nc2Oc2c(Cl)cc(-n3nc(N)c(=O)[nH]c3=O)cc2Cl)cc1C	< 50%
CCCc1c[nH]c2ccc(Oc3c(Cl)cc(-n4nc(C#N)c(=O)[nH]c4=O)cc3Cl)cc12	> 75%
Nc1nn(-c2cc(Cl)c(Oc3n[nH]c(=O)cc3-c3ccc4c(c3)CCCC4)c(Cl)c2)c(=O)[nH]c1=O	50 to 75%
CC(C)c1cc(Oc2c(Cl)cc(-c3nn(C)c(=O)[nH]c3=O)cc2Cl)n[nH]c1=O	> 75%

###

Target: THR beta (Homo sapiens, UniProt P10828)
Construct: expressed in transfected cells; host or cells: HEK293T (ATCC CRL-3216)
Sequence (P10828 1-461): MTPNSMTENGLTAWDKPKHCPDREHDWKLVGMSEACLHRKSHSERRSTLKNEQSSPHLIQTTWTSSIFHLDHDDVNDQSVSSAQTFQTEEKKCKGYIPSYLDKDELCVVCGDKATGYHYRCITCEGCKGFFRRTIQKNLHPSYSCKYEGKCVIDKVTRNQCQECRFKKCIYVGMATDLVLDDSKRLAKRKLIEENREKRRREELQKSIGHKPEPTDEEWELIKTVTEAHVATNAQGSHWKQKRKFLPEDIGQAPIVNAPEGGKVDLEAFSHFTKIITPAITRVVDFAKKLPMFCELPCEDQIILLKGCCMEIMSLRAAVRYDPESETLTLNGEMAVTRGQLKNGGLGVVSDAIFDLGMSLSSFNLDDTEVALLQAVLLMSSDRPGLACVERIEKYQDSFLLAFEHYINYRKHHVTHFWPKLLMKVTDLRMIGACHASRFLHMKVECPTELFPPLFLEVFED
Sequence (P19793 1-462 partner): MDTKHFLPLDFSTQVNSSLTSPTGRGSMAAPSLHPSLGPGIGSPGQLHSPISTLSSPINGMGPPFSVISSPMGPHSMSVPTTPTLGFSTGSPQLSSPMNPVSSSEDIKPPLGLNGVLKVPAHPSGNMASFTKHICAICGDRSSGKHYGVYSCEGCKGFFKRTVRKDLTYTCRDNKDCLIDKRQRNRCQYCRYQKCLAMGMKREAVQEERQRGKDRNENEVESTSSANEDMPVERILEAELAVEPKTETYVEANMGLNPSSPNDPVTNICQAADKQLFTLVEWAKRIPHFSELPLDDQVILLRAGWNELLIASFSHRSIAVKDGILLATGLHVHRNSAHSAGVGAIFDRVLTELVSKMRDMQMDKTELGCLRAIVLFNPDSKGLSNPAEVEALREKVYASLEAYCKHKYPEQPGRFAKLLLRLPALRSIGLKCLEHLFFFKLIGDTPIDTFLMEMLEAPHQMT
Experiment: HEK293T THR beta/RXR luciferase reporter assay (Assay 2)
Format: cell-based
Conditions: THR-beta, HEK293T reporter assay; read-out: Activity category Assay 2 (EC50, THR-beta agonist)
Below: a set of entries, each annotated with reported EC50.

Compound	Target System	EC50
Nc1nn(-c2cc(Cl)c(Oc3cc(C4Cc5ccccc54)c(=O)[nH]n3)c(Cl)c2)c(=O)[nH]c1=O (stereo not shown) [Compound 158]	THR beta (Homo sapiens, UniProt P10828)	50 to 250 nM
Nc1nn(-c2cc(Cl)c(Oc3cc(-c4ccc5c(c4)CCCO5)c(=O)[nH]n3)c(Cl)c2)c(=O)[nH]c1=O [Compound 114]	THR beta (Homo sapiens, UniProt P10828)	250 to 1000 nM
CCC(C)c1cc(Oc2c(Cl)cc(-n3nc(N)c(=O)[nH]c3=O)cc2Cl)n[nH]c1=O (stereo not shown) [Compound 39-B]	THR beta (Homo sapiens, UniProt P10828)	< 50 nM
Cc1cc(-n2nc(N)c(=O)[nH]c2=O)cc(C)c1Cc1cc2c(C(C)C)c[nH]c2cn1 [Compound 157]	THR beta (Homo sapiens, UniProt P10828)	< 50 nM
